tested-system: Succinate Dehydrogenase
method-summary: Enzyme Inhibition I-50 (WGB): Succinate Dehydrogenase Assay using Septoria nodorum mitochondria
Assay type: biochemical
test-conditions: standard throughout, n=52, read-out: I50
metric-name: IC50 (µM)
Express the result in µM but write the number alone.

Asked: Short answer please: IC50, Succinate Dehydrogenase, entry CC1=C(C(=O)Nc2ccccc2)SCCO1 [carboxin, reference compound]
Given back: 5

###

Below: a set of entries, each annotated with reported WPM Prot percent disease control.
System: Erysiphe graminis f. sp. tritici
method-summary: Wheat Powdery Mildew Foliar Assay (WPM Prot)
Type: in vivo
test-conditions: 100 ppm foliar protectant, * = averaged value
Description: A) Pathogen/Inoculum Production--Leaf material infected with the wheat powdery mildew fungus, Erysiphe graminis f. sp. tritici, is maintained continuously on wheat seedlings, cv. Caldewell. (B) Host Propagation, (C) Compound Preparation and (D) Compound Application follow as per Example 1. (E) Inoculation/Incubation--Inoculation of the test plants takes place 24 hours after compound application. […]
Report field: quantity (unit follows the number).

Consider the following illustrative entries.
compound	WPM Prot percent disease control
Cn1cc(C(=O)Nc2ccccc2C2CCC(C)(C)CC2)c(C(F)F)n1 [Number 5]	79%
C[C@@H]1CCC[C@H](c2ccccc2NC(=O)c2cn(C)nc2C(F)F)C1 (relative stereo) [Number 2]	65%
Cn1cc(C(=O)Nc2ccccc2[C@H]2CC[C@H](C)CC2)c(C(F)(F)F)n1 [Number 4]	91%

Let us move to another entry and its WPM Prot percent disease control.
Asked: Short answer please: WPM Prot percent disease control, Erysiphe graminis f. sp. tritici, entry C[C@H]1CCC[C@H](c2ccccc2NC(=O)c2cn(C)nc2C(F)F)C1 (relative stereo) [Number 3]
Given back: 100%

###

System: Erysiphe graminis f. sp. tritici
method-summary: Wheat Powdery Mildew Foliar Assay (WPM Prot)
Format: in vivo
test-conditions: 20 ppm foliar protectant, * = averaged value
Description: A) Pathogen/Inoculum Production--Leaf material infected with the wheat powdery mildew fungus, Erysiphe graminis f. sp. tritici, is maintained continuously on wheat seedlings, cv. Caldewell. (B) Host Propagation, (C) Compound Preparation and (D) Compound Application follow as per Example 1. (E) Inoculation/Incubation--Inoculation of the test plants takes place 24 hours after compound application. […]
metric-name: WPM Prot percent disease control
Report field: quantity (unit follows the number).

compound	WPM Prot percent disease control
Cn1cc(C(=O)Nc2ccccc2[C@H]2CC[C@H](C)CC2)c(C(F)(F)F)n1	65%
C[C@@H]1CCC[C@H](c2ccccc2NC(=O)c2cn(C)nc2C(F)F)C1 (relative stereo)	44%

Asked: Given the entry C[C@H]1CCC[C@H](c2ccccc2NC(=O)c2cn(C)nc2C(F)F)C1 (relative stereo) , report its measured WPM Prot percent disease control.
Given back: 77%

Asked: What would you report for Cn1cc(C(=O)Nc2ccccc2C2CCC(C)(C)CC2)c(C(F)F)n1 ?
Given back: 52%

###

Below: a set of entries, each annotated with reported WES In vitro growth inhibition 0-3 scale.
System: Pseudocercosporella herpotrichoides var. tritici
method-summary: Wheat True Eyespot In Vitro Assay (WES In Vitro)
Format: cell-based
Design: key: 0: no inhibition of mycelial growth; 1: slight inhibition of mycelial growth; 2: moderate inhibition of mycelial growth; 3: strong inhibition of mycelial growth
test-conditions: 5.0 ppm, 3 days at 19° C.
# output: bare number, no unit

Asked: Given the entry CCO[C@H]1CC[C@H](c2ccccc2NC(=O)c2cn(C)nc2C(F)F)CC1 , report its measured WES In vitro growth inhibition 0-3 scale.
Given back: 1

Asked: What would you report for Cn1cc(C(=O)Nc2ccccc2[C@@H]2CCC[C@@H](C(F)(F)F)C2)c(C(F)F)n1 (relative stereo) ?
Given back: 2

Asked: What would you report for C[C@@H]1CCC[C@H](c2ccccc2NC(=O)c2cn(C)nc2C(F)F)C1 (relative stereo) ?
Given back: 3

Attribution: patent US5498624A
